# pSTAT3 (MFI) in CD8 T cells at 0.0001 µM per record follows
# SYSTEM NAME: T1, IL10Rα and IL2Rγ on human primary cells (CD8 T cells, CD4 T cells, monocytes) (human) (UniProt Q13651)
# T1 sequence (looked up) 1: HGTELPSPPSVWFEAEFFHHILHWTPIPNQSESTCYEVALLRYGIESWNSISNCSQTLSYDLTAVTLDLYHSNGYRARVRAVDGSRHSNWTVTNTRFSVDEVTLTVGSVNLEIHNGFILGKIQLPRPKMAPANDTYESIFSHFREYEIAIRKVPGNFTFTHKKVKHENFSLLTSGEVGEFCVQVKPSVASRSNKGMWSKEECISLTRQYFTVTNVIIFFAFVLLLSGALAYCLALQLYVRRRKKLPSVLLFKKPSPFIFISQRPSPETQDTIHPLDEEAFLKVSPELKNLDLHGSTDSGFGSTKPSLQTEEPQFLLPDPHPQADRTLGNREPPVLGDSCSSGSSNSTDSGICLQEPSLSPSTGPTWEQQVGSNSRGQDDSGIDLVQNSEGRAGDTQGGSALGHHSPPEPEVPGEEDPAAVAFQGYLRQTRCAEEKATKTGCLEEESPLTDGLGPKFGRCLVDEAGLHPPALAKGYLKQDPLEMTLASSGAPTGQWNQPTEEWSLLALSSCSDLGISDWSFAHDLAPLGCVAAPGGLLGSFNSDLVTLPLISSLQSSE
# T1 sequence (looked up) 2: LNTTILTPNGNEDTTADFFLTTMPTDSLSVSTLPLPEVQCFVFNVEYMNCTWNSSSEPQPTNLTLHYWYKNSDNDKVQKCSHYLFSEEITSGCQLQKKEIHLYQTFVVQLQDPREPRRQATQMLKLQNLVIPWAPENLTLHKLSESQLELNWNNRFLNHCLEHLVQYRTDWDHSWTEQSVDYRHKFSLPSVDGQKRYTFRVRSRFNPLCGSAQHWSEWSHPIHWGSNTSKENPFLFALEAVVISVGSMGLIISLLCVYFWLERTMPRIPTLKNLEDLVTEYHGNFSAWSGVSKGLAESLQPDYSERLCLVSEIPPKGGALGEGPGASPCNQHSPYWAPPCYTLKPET
# ASSAY EXPLANATION: cell-based or functional assay
Number in MFI, nothing else.

hIL10Ra_VHH14-hIL2Rg_VHH19, no linker, tag his (bispecific antibody, not shown: small tags and cut ends) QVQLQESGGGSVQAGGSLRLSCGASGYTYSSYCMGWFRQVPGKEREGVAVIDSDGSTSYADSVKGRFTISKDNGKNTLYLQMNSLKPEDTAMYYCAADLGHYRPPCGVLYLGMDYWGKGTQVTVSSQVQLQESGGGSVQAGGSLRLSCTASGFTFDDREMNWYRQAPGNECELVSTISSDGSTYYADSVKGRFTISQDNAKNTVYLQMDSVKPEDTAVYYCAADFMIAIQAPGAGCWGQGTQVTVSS : 7380
hIL10Ra_VHH14-hIL2Rg_VHH19, linker GGGSGGGS, tag his (bispecific antibody, not shown: small tags and cut ends) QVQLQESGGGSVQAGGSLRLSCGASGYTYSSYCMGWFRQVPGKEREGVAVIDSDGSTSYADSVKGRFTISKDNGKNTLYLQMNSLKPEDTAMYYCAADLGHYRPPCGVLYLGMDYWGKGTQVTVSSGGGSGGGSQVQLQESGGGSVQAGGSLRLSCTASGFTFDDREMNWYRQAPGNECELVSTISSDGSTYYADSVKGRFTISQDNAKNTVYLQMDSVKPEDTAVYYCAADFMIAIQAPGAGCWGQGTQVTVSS : 7060
hIL10Ra_VHH14-hIL2Rg_VHH19, linker GGGS, tag his (bispecific antibody, not shown: small tags and cut ends) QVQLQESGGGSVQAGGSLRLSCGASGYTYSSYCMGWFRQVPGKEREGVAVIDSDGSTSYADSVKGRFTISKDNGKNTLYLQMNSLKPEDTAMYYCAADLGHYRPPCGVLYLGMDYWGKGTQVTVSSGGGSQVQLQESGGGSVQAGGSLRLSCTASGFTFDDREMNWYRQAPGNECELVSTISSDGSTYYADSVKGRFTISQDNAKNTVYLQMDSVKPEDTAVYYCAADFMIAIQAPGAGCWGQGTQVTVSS : 7210

Consider now this further binder.
Problem: What value of pSTAT3 (MFI) in CD8 T cells at 0.0001 µM has been reported for the following binder? hIL10Ra_VHH14-hIL2Rg_VHH19, linker …, tag his (bispecific antibody, not shown: small tags and cut ends) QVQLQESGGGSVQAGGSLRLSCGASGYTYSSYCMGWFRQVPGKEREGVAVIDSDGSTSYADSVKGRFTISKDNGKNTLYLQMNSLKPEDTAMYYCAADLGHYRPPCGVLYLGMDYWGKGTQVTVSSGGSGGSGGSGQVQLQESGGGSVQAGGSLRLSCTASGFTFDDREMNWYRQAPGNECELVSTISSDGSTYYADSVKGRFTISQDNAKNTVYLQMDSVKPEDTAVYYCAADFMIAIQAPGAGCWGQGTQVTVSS
Result: 7840
